Taken from ChEMBL document CHEMBL4619808.

- Tested on: Bacillus subtilis
- method-notes: Microbicidal activity against Bacillus subtilis ATCC 6633 assessed as inhibition of colony growth incubated for 24 hrs followed by replating and further incubated for 24 hrs
- Type: functional
- stated-conditions: ATCC 6633, 24 h
measurement-type: MBC (µM)
Number in µM, nothing else.

The following compounds have reported results that may help.
CC(=O)N[C@@H](CCCCN)c1nc(C)sc1C(=O)N[C@@H](C)c1nc(CCCCN)sc1C(=O)N[C@@H](C)c1nc(C)sc1C(=O)N[C@@H](CCCCN)c1nc(C)sc1C(=O)N[C@@H](C)c1nc(CCCCN)sc1C(=O)N[C@@H](C)c1nc(C)sc1C(=O)N[C@@H](CCCCN)c1nc(C)sc1C(=O)N[C@@H](C)c1nc(CCCCN)sc1C(=O)N[C@@H](C)c1nc(C)sc1C(N)=O; 0.8
CC(=O)N[C@@H](CCCNC(=N)N)c1nc(C)sc1C(=O)N[C@@H](C)c1nc(CCCNC(=N)N)sc1C(=O)N[C@@H](C)c1nc(C)sc1C(=O)N[C@@H](CCCNC(=N)N)c1nc(C)sc1C(=O)N[C@@H](C)c1nc(CCCNC(=N)N)sc1C(=O)N[C@@H](C)c1nc(C)sc1C(=O)N[C@@H](CCCNC(=N)N)c1nc(C)sc1C(=O)N[C@@H](C)c1nc(CCCNC(=N)N)sc1C(=O)N[C@@H](C)c1nc(C)sc1C(N)=O; 0.5

Would you kindly look at the next entry?
Bacillus subtilis / MBC / CC(=O)N[C@@H](CCCCN)c1nc(C)sc1C(=O)N[C@@H](C)c1nc(C)sc1C(=O)N[C@@H](C)c1nc(CCCCN)sc1C(=O)N[C@@H](C)c1nc(C)sc1C(=O)N[C@@H](C)c1nc(CCCCN)sc1C(=O)N[C@@H](CCCCN)c1nc(C)sc1C(=O)N[C@@H](C)c1nc(CCCCN)sc1C(=O)N[C@@H](CCCCN)c1nc(C)sc1C(=O)N[C@@H](C)c1nc(C)sc1C(=O)N[C@@H](C)c1nc(C)sc1C(=O)N[C@@H](C)c1nc(CCCCN)sc1C(=O)N[C@@H](CCCCN)c1nc(C)sc1C(N)=O : value?
0.8

====

- method-notes: Hemolytic activity in human RBC assessed as induction of hemolysis incubated for 1 hr
- Type: cell-based, Erythrocyte
- stated-conditions: red blood cells (erythrocytes), read-out: HD50
measurement-type: HC50 at 1 h

Entry CC(=O)N[C@@H](CCCCN)c1nc(C)sc1C(=O)N[C@@H](C)c1nc(CCCCN)sc1C(=O)N[C@@H](C)c1nc(C)sc1C(=O)N[C@@H](CCCCN)c1nc(C)sc1C(=O)N[C@@H](C)c1nc(CCCCN)sc1C(=O)N[C@@H](C)c1nc(C)sc1C(=O)N[C@@H](CCCCN)c1nc(C)sc1C(=O)N[C@@H](C)c1nc(CCCCN)sc1C(=O)N[C@@H](C)c1nc(C)sc1C(=O)N[C@@H](CCCCN)c1nc(C)sc1C(=O)N[C@@H](C)c1nc(CCCCN)sc1C(=O)N[C@@H](C)c1nc(C)sc1C(N)=O : reported HC50 at 1 h = ?
> 100 µM

====

Parameter MIC: see the listing below.
- Tested on: Pseudomonas aeruginosa
- method-notes: Antimicrobial activity against Pseudomonas aeruginosa ATCC 9027 assessed as inhibition of microbial growth incubated for 24 hrs
- Assay type: functional
- stated-conditions: ATCC 9027, 24 h

// fetch Pseudomonas aeruginosa MIC for CC(=O)N[C@@H](CCCCN)c1nc(C)sc1C(=O)N[C@@H](C)c1nc(CCCCN)sc1C(=O)N[C@@H](C)c1nc(C)sc1C(=O)N[C@@H](CCCCN)c1nc(C)sc1C(=O)N[C@@H](C)c1nc(CCCCN)sc1C(=O)N[C@@H](C)c1nc(C)sc1C(=O)N[C@@H](CCCCN)c1nc(C)sc1C(=O)N[C@@H](C)c1nc(CCCCN)sc1C(=O)N[C@@H](C)c1nc(C)sc1C(N)=O
42 µM
